Catalogue of CLint scaled at 1 µM values
Experiment: In vitro microsomal stability, mouse
Type: in vitro ADME
Conditions: mouse liver microsomes, pH 7.4, read-out: microsomal CLint, app mouse

compound="CN1CCC(Nc2ccnc3ccc(-c4ccc(C(F)(F)F)nc4)nc23)CC1 [Compound 21]" meas_value="< 46 mL/min/kg"

Answer with the recorded CLint scaled at 1 µM of N[C@H]1CCN(c2ccnc3ccc(-c4ccc(C(F)(F)F)nc4)nc23)C1 [Compound 14] only.
< 46 mL/min/kg

Indicate its recorded CLint scaled at 1 µM; the compound in question is FC(F)(F)c1ccc(-c2ccc3nccc(N[C@@H]4CCNC4)c3n2)cn1 [Compound 16]
< 467 mL/min/kg

###

Let's go through some pIC50 measurements on HuPI3Kα (Homo sapiens, UniProt P42336) together.
Sequence (P42336 whole entry): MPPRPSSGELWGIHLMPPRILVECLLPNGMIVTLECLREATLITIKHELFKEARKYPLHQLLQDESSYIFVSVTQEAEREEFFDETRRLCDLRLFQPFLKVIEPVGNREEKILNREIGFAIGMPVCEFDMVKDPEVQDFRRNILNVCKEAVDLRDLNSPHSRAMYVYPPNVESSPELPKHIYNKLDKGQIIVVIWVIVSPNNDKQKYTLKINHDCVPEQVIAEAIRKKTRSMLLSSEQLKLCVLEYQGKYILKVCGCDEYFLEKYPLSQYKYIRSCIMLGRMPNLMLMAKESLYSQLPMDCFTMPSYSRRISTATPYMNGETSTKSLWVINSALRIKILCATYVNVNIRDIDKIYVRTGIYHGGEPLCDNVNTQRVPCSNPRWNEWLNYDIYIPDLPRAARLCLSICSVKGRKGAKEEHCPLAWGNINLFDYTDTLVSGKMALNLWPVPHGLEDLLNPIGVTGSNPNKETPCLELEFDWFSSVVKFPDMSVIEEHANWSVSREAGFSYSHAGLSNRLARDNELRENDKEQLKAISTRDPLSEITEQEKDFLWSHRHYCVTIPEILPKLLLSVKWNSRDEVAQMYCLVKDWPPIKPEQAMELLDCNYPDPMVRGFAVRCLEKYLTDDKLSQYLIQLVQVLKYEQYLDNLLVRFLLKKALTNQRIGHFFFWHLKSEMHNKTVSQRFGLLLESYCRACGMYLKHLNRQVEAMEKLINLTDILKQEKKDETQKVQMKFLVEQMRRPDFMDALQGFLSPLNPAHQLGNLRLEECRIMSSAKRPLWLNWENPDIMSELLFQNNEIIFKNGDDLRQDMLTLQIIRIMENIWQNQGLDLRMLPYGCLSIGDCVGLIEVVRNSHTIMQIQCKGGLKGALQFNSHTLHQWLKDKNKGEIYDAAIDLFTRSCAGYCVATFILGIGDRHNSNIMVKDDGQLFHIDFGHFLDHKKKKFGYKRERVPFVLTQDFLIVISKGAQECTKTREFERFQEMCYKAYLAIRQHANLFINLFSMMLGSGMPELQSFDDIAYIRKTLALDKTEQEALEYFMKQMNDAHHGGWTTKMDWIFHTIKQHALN
Sequence (P27986 whole entry partner): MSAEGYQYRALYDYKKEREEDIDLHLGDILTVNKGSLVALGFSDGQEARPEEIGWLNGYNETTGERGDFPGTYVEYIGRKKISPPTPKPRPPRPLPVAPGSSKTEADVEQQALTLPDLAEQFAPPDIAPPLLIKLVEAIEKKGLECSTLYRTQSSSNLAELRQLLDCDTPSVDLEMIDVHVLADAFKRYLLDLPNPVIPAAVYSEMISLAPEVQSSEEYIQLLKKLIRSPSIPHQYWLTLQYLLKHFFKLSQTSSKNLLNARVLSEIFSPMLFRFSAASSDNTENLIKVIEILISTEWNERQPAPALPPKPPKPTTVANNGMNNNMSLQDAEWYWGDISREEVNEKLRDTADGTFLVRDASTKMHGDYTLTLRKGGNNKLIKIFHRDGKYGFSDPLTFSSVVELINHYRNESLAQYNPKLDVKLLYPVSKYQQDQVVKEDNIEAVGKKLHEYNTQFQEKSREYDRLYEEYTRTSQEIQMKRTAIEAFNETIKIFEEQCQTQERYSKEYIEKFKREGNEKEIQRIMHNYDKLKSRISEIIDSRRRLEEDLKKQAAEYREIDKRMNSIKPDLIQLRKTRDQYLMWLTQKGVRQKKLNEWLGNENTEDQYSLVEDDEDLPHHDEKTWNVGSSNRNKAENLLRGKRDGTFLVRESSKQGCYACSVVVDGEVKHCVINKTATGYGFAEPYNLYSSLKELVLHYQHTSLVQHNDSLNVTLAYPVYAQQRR
Reminder that pIC50 means the negative base-10 logarithm of the concentration expressed in mol/L.

compound="N[C@H]1CCN(c2ccnc3ccc(-c4ccc(C(F)(F)F)nc4)nc23)C1 [Compound 14]" meas_value=5.28

State pIC50 (HuPI3Kα (Homo sapiens, UniProt P42336)) of FC(F)(F)c1ccc(-c2ccc3nccc(N[C@@H]4CCNC4)c3n2)cn1 [Compound 16] .
5.05

###

Test system: β-hematin (βH) formation
Assay: NP-40 mediated cell-free β-hematin assay
Details: read-out: β-hematin IC50
observation_type: IC50 (µM)
Give the value, in units of µM, as a plain number.

Return value of IC50 for input CCN(CC)CCCC(C)Nc1ccnc2cc(Cl)ccc12 (centres unmarked) [Chloroquine, reference compound] , no commentary.
21

###

System: P. falciparum NF54 strain
Assay: Antiplasmodial activity, parasite lactate dehydrogenase assay, NF54
Type: cell-based, Plasmodium falciparum
Conditions: Plasmodium falciparum, NF54, 72 h, parasite lactate dehydrogenase assay over 72 h; read-out: Pf IC50 ± SD NF54
pIC50: −log10 of the molar value.
Note to self: values exactly at 7 are T. So pIC50 at or above 7 is T, below is F.

Here's what some known entries look like.
compound=CN1CCC(Nc2ccnc3ccc(-c4ccc(C(F)(F)F)nc4)nc23)CC1 group_label=T
compound=CS(=O)(=O)c1cccc(-c2ccc3nccc(N4CC[C@@H](NC(N)=O)C4)c3n2)c1 group_label=F
compound=OCCN1CCC(Nc2ccnc3ccc(-c4ccc(C(F)(F)F)nc4)nc23)CC1 group_label=F

Reported pIC50 at or above 7? CC1CNCCC1Nc1ccnc2ccc(-c3ccc(C(F)(F)F)nc3)nc12 (centres unmarked)
T

Please check the record FC(F)CN1CCC(Nc2ccnc3ccc(-c4ccc(C(F)(F)F)nc4)nc23)CC1 and state if its pIC50 is at or above 7.
F

Record CS(=O)(=O)c1cccc(-c2ccc3nccc(NC4CCCNC4)c3n2)c1 (centres unmarked) ; criterion: pIC50 no lower than 7. Met?
F

###

System: Chinese Hamster Ovary (CHO) cell line
Assay: cells
Assay type: cell-based
Conditions: Cricetulus griseus, CHO, 48 h, read-out: CHO IC50
observation_type: pIC50
Reminder that pIC50 is minus the log10 of a molar concentration.

Provide only the value of recorded pIC50 for NS(=O)(=O)c1cccc(-c2ccc3nccc(-c4ccnc(C(F)(F)F)c4)c3n2)c1
5.22

###

Listed here are compounds together with their documented CLint scaled at 1 µM.
Test: In vitro microsomal stability, human
Format: in vitro ADME
Settings: pooled human liver microsomes, pH 7.4, read-out: microsomal CLint, app human

// worked examples, CLint scaled at 1 µM included
compound="CN1CCC(Nc2ccnc3ccc(-c4ccc(C(F)(F)F)nc4)nc23)CC1 [Compound 21]" observation_type="CLint scaled at 1 µM" meas_value="< 10 mL/min/kg"
compound="N[C@H]1CCN(c2ccnc3ccc(-c4ccc(C(F)(F)F)nc4)nc23)C1 [Compound 14]" observation_type="CLint scaled at 1 µM" meas_value="< 13 mL/min/kg"

Kindly consider the entry below.
Assign CLint scaled at 1 µM to the following record: FC(F)(F)c1ccc(-c2ccc3nccc(N[C@@H]4CCNC4)c3n2)cn1 [Compound 16]
< 13 mL/min/kg

Source of measurements: paper PMC11247499
